# System: T47D
# ASSAY_COMMENT: NCI tumour cell line growth inhibition, 48 h
The source made the active and inactive calls. Rule as the data show it: active = GI50 up to about 1.1 µM and inactive = higher.
Please answer using one outcome listed in Yes = active, No = inactive

Example results:
COMPOUND	ASSIGNED_CATEGORY
CN(/N=C(\C(=O)O)c1ccccc1)C1=NCCN1	No
CN(C)Cc1cc(C(=O)/C=C/c2c(F)cccc2Cl)cc(CN(C)C)c1O	No
O=C1/C(=C/c2ccc(Cl)cc2)N=C(c2ccccc2)N1c1ccc(S(=O)(=O)Nc2nccs2)cc1	No
O=[N+]([O-])C(/C=C(\Cl)[N+](=O)[O-])=C(Nc1ccccc1)Nc1ccccc1	No

query: GET /call?item= Cc1cc(O)c2c(c1)C[C@@H](O)C1=C2C(=O)c2c(O)ccc(OC3CC(O)C(OC4CC(OC5CCC(OC6CC(O)C(OC7CC(OC8CCC(O)C(C)O8)C(O)C(C)O7)C(C)O6)C(C)O5)C(O)C(C)O4)C(C)O3)c2C1=O (stereo partly specified) returns the recorded outcome of this test.
result: Yes

query: Same read-out for C=C1C(=O)CCC1C(=O)O (stereo unspecified) ?
result: No

query: Same read-out for CCOc1ccc2nc(NC(=O)/C(CC(=O)CC(C3=C(O)c4ccccc4CC3=O)c3ccccc3)=N\O)sc2c1 (stereo unspecified) ?
result: No
